target or system: benzodiazepine receptors
measurement notes: Inhibition of the binding to benzodiazepine receptors
reported conditions: rat brains, 1 hour 30 minutes at 4° C., tracers 3H-RO-15-1788 and 3H-RO-5-4864, Table I, read-out: BDZ receptors
pIC50: −log10 of the molar value.
Threshold rule: pIC50 greater than or equal to 6 is fulfilled; below that, not fulfilled.

Qu. Could you tell me if the measured pIC50 of Cc1nnc2n1-c1sc3c(c1C(c1ccccc1Cl)=NC2)CCN(C(=O)CSc1ccc(C(C)(C)C)cc1)C3 [Example 17] reaches 6 or more?
Ans. not fulfilled

Qu. # bool: pIC50 of Cc1nnc2n1-c1sc3c(c1C(c1ccccc1Cl)=NC2)CCN(C(=O)CSc1cccs1)C3 [Example 33] >= 6
Ans. not fulfilled

Qu. Kindly determine if pIC50 recorded for Cc1nnc2n1-c1sc3c(c1C(c1ccccc1Cl)=NC2)CCN(C(=O)CSC(C)C)C3 [Example 1] is above or exactly 6.
Ans. not fulfilled

Qu. Check the entry Cc1nnc2n1-c1sc3c(c1C(c1ccccc1Cl)=NC2)CCN(C(=O)CSc1cccc(Cl)c1Cl)C3 [Example 27] : does pIC50 equal or exceed 6?
Ans. not fulfilled

Qu. Hello, I need to know if Cc1nnc2n1-c1sc3c(c1C(c1ccccc1Cl)=NC2)CCN(C(=S)CSc1ccc(F)cc1)C3 [Example 26] has measured pIC50 not below 6. Thanks!
Ans. fulfilled

Qu. Has COc1ccc(SCC(=O)N2CCc3c(sc4c3C(c3ccccc3Cl)=NCc3nnc(C)n3-4)C2)c(OC)c1OC [Example 15] a recorded pIC50 greater than or equal to 6?
Ans. not fulfilled

Qu. Is the recorded value of pIC50 equal to or greater than 6 for this compound? Cc1nnc2n1-c1sc3c(c1C(c1ccccc1Cl)=NC2)CCN(C(=S)CSc1ccccc1)C3 [Example 8]
Ans. not fulfilled

Qu. Given the entry COc1ccc(SCC(=S)N2CCc3c(sc4c3C(c3ccccc3Cl)=NCc3nnc(C)n3-4)C2)c(OC)c1OC [Example 16] , answer whether its pIC50 meets or surpasses 6.
Ans. fulfilled

Qu. Determine whether this compound has pIC50 no lower than 6: Cc1nnc2n1-c1sc3c(c1C(c1ccccc1Cl)=NC2)CCN(C(=O)CSc1ccccc1)C3 [Example 7]
Ans. not fulfilled

----------
measurement notes: Global ischemia on gerbils
Type: in vivo
reported conditions: Meriones unguiculatus, 168 h, carotides clamped 10 minutes, hippocampes one week later, 3H-PK 11195, percentage of protection compared to control
inhibition in vivo at 10 mg/kg: recorded values
Param answer (str): number followed by unit.

Qu. Note down inhibition in vivo at 10 mg/kg recorded for `Cc1nnc2n1-c1sc3c(c1C(c1ccccc1Cl)=NC2)CCN(C(=O)CSc1cccs1)C3`
Ans. 24.8%

----------
measurement notes: Global ischemia on gerbils
Assay type: in vivo
reported conditions: Meriones unguiculatus, 168 h, carotides clamped 10 minutes, hippocampes one week later, 3H-PK 11195, percentage of protection compared to control
Categorize each record by its inhibition in vivo at 10 mg/kg using band 1 (below 30%), band 2 (30% to below 40%), band 3 (40% or more)

[
  {
    "molecule": "Cc1nnc2n1-c1sc3c(c1C(c1ccccc1Cl)=NC2)CCN(C(=O)CSC(C)C)C3",
    "answer label": "band 3"
  },
  {
    "molecule": "Cc1nnc2n1-c1sc3c(c1C(c1ccccc1Cl)=NC2)CCN(C(=S)CSc1cccc(Cl)c1Cl)C3",
    "answer label": "band 2"
  },
  {
    "molecule": "Cc1nnc2n1-c1sc3c(c1C(c1ccccc1Cl)=NC2)CCN(C(=O)CSc1ccc(Oc2ccccc2)cc1)C3",
    "answer label": "band 3"
  },
  {
    "molecule": "Cc1nnc2n1-c1sc3c(c1C(c1ccccc1Cl)=NC2)CCN(C(=O)CSc1ccccc1C(F)(F)F)C3",
    "answer label": "band 3"
  },
  {
    "molecule": "Cc1nnc2n1-c1sc3c(c1C(c1ccccc1Cl)=NC2)CCN(C(=O)CSc1cccc(C(F)(F)F)c1)C3",
    "answer label": "band 2"
  }
]

Qu. Please indicate the class for `COc1cc(SCC(=O)N2CCc3c(sc4c3C(c3ccccc3Cl)=NCc3nnc(C)n3-4)C2)cc(OC)c1OC` based on its inhibition in vivo at 10 mg/kg.
Ans. band 2

Qu. Exercise: read the entry `COc1ccc(SCC(=O)N2CCc3c(sc4c3C(c3ccccc3Cl)=NCc3nnc(C)n3-4)C2)c(OC)c1OC` and state which class it falls under.
Ans. band 2

Qu. // bin(item) where item = `Cc1nnc2n1-c1sc3c(c1C(c1ccccc1Cl)=NC2)CCN(C(=O)CSc1cccc(Cl)c1Cl)C3`
Ans. band 2

Qu. // return the class label for `COc1ccc(SCC(=O)N2CCc3c(sc4c3C(c3ccccc3Cl)=NCc3nnc(C)n3-4)C2)cc1OC`
Ans. band 3
